test system: SW-620 colon; experiment: NCI-60 one-dose screen, 48 h (100 = growth as untreated, 0 = no growth, -100 = all killed); conditions: 10 µM unless noted
Compounds without any hit were thinned out: in the full panel of roughly 83,000, 20% have a hit. Calls of active or inactive are those of the source. Rule for the calls: active = growth percent below 10; inactive = the rest.
Metric: growth

>  <Item smiles>
CCCCOc1ccc(/C=N/Nc2cc(C)nc3ccc(Br)cc23)cc1

>  <Metric>
growth

>  <Measured>
-70.5% (active)

$$$$
>  <Item smiles>
CCC(CC)NCC(C)(C)O

>  <Metric>
growth

>  <Measured>
107% (inactive)

$$$$
>  <Item smiles>
O=C(Cc1ccc(/C=C/C(=O)c2nccs2)cc1)Nc1ccccc1

>  <Metric>
growth

>  <Measured>
51.9% (inactive)

$$$$
>  <Item smiles>
COC(=O)C1=C(C(=O)ON)[C@@H]2C=C[C@@]1([C@@H](Cc1ccccc1)Nc1ccccc1)O2

>  <Metric>
growth

>  <Measured>
-71.2% (active)

$$$$
>  <Item smiles>
O=C(c1nnc(Nc2ccccc2Br)o1)c1c[nH]c2ccccc12

>  <Metric>
growth

>  <Measured>
98.7% (inactive)

$$$$
>  <Item smiles>
N#CC(C#N)=Cc1cc2ccccc2nc1Oc1ccc(C(F)(F)F)cc1

>  <Metric>
growth

>  <Measured>
74.5% (inactive)

$$$$
>  <Item smiles>
N#C/C(=C\c1ccccn1)c1nc2cc(Cl)ccc2s1

>  <Metric>
growth

>  <Measured>
77.5% (inactive)

$$$$
>  <Item smiles>
COc1ccc(C(=O)CSc2nc(-c3cc(OC)ccc3OC)cc(-c3ccc(Cl)cc3)c2C#N)cc1

>  <Metric>
growth

>  <Measured>
50.7% (inactive)

$$$$
>  <Item smiles>
CC(C)(C)c1cc(C=O)cc(C(C)(C)C)c1O

>  <Metric>
growth

>  <Measured>
97.7% (inactive)

$$$$
>  <Item smiles>
COc1cc(/C=C\c2cc(OC)c(OC)c(OC)c2)cc(N)c1OC

>  <Metric>
growth

>  <Measured>
75% (inactive)

$$$$
>  <Item smiles>
COc1ccc(Cc2cnc(NC(=O)c3ccc4c(c3)OCCO4)s2)cc1

>  <Metric>
growth

>  <Measured>
31.4% (inactive)

$$$$
>  <Item smiles>
C[C@H](c1nc2ccc(N)cc2[nH]1)[C@H]1CC[C@H]2[C@@H]3CCC4=CC(=O)CC[C@]4(C)[C@H]3CC[C@]12C

>  <Metric>
growth

>  <Measured>
102% (inactive)

$$$$
>  <Item smiles>
COc1ccc(/C=C/c2nc(Nc3ccc(Cl)cc3)c3ccccc3n2)cc1

>  <Metric>
growth

>  <Measured>
48.7% (inactive)

$$$$
>  <Item smiles>
OCc1cnc2ccccc2c1NC1CCCCCC1

>  <Metric>
growth

>  <Measured>
98% (inactive)

$$$$
>  <Item smiles>
COc1cccc(-c2nc3occn3c2-c2ccnc(NCCNS(=O)(=O)c3cccc4ccccc34)n2)c1

>  <Metric>
growth

>  <Measured>
113% (inactive)

$$$$
>  <Item smiles>
CC(=O)c1ccc(NS(=O)(=O)c2cccc(C(=O)Nc3ccc(Br)cc3)c2)cc1

>  <Metric>
growth

>  <Measured>
75.6% [25 µM] (inactive)

$$$$
>  <Item smiles>
Cn1ccnc1C(=O)/C=C/c1ccc(CC(=O)NC2CCCCC2)cc1

>  <Metric>
growth

>  <Measured>
23.1% (inactive)

$$$$
>  <Item smiles>
CCCC/C=N/NC(=S)NCc1ccccc1

>  <Metric>
growth

>  <Measured>
96.1% (inactive)

$$$$
>  <Item smiles>
C=C(C)[C@@H]1CC[C@]2(CN)CC[C@]3(C)[C@H](CC[C@@H]4[C@@]5(C)CCCNC(C)(C)[C@@H]5CC[C@]43C)[C@@H]12

>  <Metric>
growth

>  <Measured>
-84.5% (active)

$$$$
>  <Item smiles>
O=S(=O)(NCCNc1nccc(-c2c(-c3cccc(F)c3)nc3sccn23)n1)c1ccc(Br)cc1

>  <Metric>
growth

>  <Measured>
54.8% (inactive)

$$$$
>  <Item smiles>
CN1CCN(c2ccc(NC3=C(Cl)C(=O)c4ncccc4C3=O)cc2C(F)(F)F)CC1

>  <Metric>
growth

>  <Measured>
-53% (active)

$$$$
